Where a name gives a salt, the structure may show the parent alone.
Outcome: Condition met for melting point of at least 200 °C; Condition not met for anything lower.

{"compound": "CC(C)(C)OC(=O)N1CCC(C(=O)N2CCC(c3[nH]nc4c3C(=O)c3c(NC(=O)NN5CCOCC5)cccc3-4)CC2)CC1 [Example CCLXXXI]", "label": "Condition met"}
{"compound": "COc1ccc(-c2[nH]nc3c2C(=O)c2c(NC(=O)CN4CCN(CCN)CC4)cccc2-3)cc1 [Example LXXI]", "label": "Condition met"}
{"compound": "COc1ccc(-c2[nH]nc3c2C(=O)c2c(NC(=O)CN4CCN(CCO)CC4)cccc2-3)cc1 [Example XXVIII]", "label": "Condition met"}
{"compound": "COc1ccc(-c2[nH]nc3c2C(=O)c2c(NC(=S)NN4CCN(C)CC4)cccc2-3)cc1 [Example LXXXVI]", "label": "Condition met"}
{"compound": "COc1ccc(-c2[nH]nc3c2C(=O)c2c(NC(=O)Cc4ccc(NC(C)=O)cc4)cccc2-3)cc1 [Example XXXVI]", "label": "Condition met"}
{"compound": "CN(C)CCCCC(=O)N1CCC(c2[nH]nc3c2C(=O)c2c(NC(=O)NN4CCOCC4)cccc2-3)CC1 (as salt: TFA) [Example CCLXXVIII]", "label": "Condition not met"}
{"compound": "COc1ccc(-c2[nH]nc3c2C(=O)c2c(NC(=O)C4CCCC4)cccc2-3)cc1 [Example VI]", "label": "Condition met"}
{"compound": "O=C(Nc1cccc2c1C(=O)c1c-2n[nH]c1-c1ccc(C(=O)N2CCC(N3CCCC3)CC2)s1)NN1CCOCC1 (as salt: TFA) [Example CLIX]", "label": "Condition met"}
{"compound": "CC(C)(C)OC(=O)N1CCN(C(=O)N2CCC(c3[nH]nc4c3C(=O)c3c(NC(=O)NN5CCOCC5)cccc3-4)CC2)CC1 (as salt: TFA) [Example CCLXXI]", "label": "Condition met"}
{"compound": "CC(=O)N[C@H]1CCN(C(=O)c2ccc(-c3[nH]nc4c3C(=O)c3c(NC(=O)NN5CCOCC5)cccc3-4)s2)C1 (as salt: TFA) [Example CLXXVII]", "label": "Condition met"}
{"compound": "O=C(Nc1cccc2c1C(=O)c1c-2n[nH]c1-c1ccc(C(=O)N2CCC[C@@H]2CN2CCCC2)s1)NN1CCOCC1 (as salt: TFA) [Example CLXXXIV]", "label": "Condition not met"}
{"compound": "CCc1[nH]nc2c1C(=O)c1c(NC(=O)NN3CCN(C)CC3)cccc1-2 (as salt: TFA) [Example CCLVI]", "label": "Condition met"}
{"compound": "NCC1CCN(CC(=O)Nc2cccc3c2C(=O)c2c-3n[nH]c2-c2ccc(N3CCOCC3)cc2)CC1 [Example LXXXIV]", "label": "Condition met"}
{"compound": "CCN1CCN(C(=O)c2ccc(-c3[nH]nc4c3C(=O)c3c(NC(=O)NN5CCOCC5)cccc3-4)s2)CC1 (as salt: TFA) [Example CLI]", "label": "Condition not met"}
{"compound": "CN1CCN(NC(=O)Nc2cccc3c2C(=O)c2c-3n[nH]c2-c2ccc(C(=O)O)s2)CC1 [Example CXXIII]", "label": "Condition met"}
{"compound": "CN1CCN(NC(=O)Nc2cccc3c2C(=O)c2c-3n[nH]c2-c2ccc(N3CCN(C)CC3)cc2)CC1 (as salt: TFA) [Example CCXXIV]", "label": "Condition met"}
{"compound": "COC[C@H]1CCCN1NC(=O)Nc1cccc2c1C(=O)c1c-2n[nH]c1-c1ccc(C(=O)N2CCN(C)CC2)s1 (as salt: TFA) [Example CCIII]", "label": "Condition not met"}
{"compound": "COc1ccc(-c2[nH]nc3c2C(=O)c2c(NC(=O)Cc4ccc(Cl)cc4)cccc2-3)cc1 [Example X]", "label": "Condition met"}
{"compound": "CC(C)c1[nH]nc2c1C(=O)c1c(NC(=O)CN3CCC(CN)CC3)cccc1-2 [Example CXVIII]", "label": "Condition met"}
{"compound": "COc1ccc(-c2[nH]nc3c2C(=O)c2c(NC(=O)CN4CCSCC4)cccc2-3)cc1 [Example XXXII]", "label": "Condition met"}
{"compound": "CN(C)C1CCN(C(=O)[C@H]2CC[C@H](c3[nH]nc4c3C(=O)c3c(NC(=O)NN5CCOCC5)cccc3-4)CC2)C1 (stereo partly drawn) (as salt: TFA) [Example CCCII]", "label": "Condition not met"}
{"compound": "CCN(CC)C1CCN(c2ccc(-c3[nH]nc4c3C(=O)c3c(NC(=O)NN5CCOCC5)cccc3-4)cc2)CC1 (as salt: TFA) [Example CCLII]", "label": "Condition met"}
{"compound": "CCOC(=O)c1ccc(-c2[nH]nc3c2C(=O)c2c(NC(=O)NN4CCN(C)CC4)cccc2-3)s1 [Example CXXII]", "label": "Condition met"}
{"compound": "Cn1ccc(-c2[nH]nc3c2C(=O)c2c(NC(N)=O)cccc2-3)c1 [Example LXXXVIX]", "label": "Condition met"}
